Listed below: pIC50 values for each entry.
- systemName: Fatty-acid amide hydrolase 1 (Homo sapiens, UniProt O00519)
- Sequence (O00519 whole entry): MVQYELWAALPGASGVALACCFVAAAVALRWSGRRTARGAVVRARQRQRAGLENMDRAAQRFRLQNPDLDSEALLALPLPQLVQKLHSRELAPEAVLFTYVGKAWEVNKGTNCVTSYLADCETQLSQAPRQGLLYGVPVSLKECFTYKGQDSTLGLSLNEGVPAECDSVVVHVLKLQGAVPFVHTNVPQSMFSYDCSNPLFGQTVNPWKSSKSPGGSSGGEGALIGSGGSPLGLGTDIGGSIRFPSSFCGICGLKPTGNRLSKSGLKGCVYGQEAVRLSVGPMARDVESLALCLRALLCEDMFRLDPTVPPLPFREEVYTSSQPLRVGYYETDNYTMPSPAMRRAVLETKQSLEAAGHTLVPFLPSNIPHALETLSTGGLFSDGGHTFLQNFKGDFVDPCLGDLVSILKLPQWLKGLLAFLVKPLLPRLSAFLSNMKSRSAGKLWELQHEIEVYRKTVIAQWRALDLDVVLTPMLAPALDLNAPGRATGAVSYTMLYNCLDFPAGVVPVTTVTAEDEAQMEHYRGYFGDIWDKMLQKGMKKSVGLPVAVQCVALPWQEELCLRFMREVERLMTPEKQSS
- protocolDescription: Inhibition of human recombinant FAAH using [3H]anandamide by competitive hydrolysis assay
Scale for pIC50: -log10 of concentration given in mol/L; no unit attached.

INSERT INTO measurements (compoundsmiles, recordedmetric, experimentalresult) VALUES
  ('C=CCCC(=O)N1C[C@@H]([C@@H](C)O)C1=O', 'pIC50', 5.10),
  ('CC(=O)O[C@@H]1[C@@H]([C@@H](C)OC(=O)CCc2ccccc2)C(=O)N1C(=O)CCCc1ccccc1', 'pIC50', 5.29),
  ('CC(=O)O[C@@H]1[C@@H]([C@@H](C)OC(=O)CCc2ccccc2)C(=O)N1C(=O)CCc1ccccc1', 'pIC50', 5.69);

Incoming: Bench note: what pIC50 did `CC(=O)O[C@@H]1[C@@H]([C@@H](C)OC(=O)Cc2ccc(-c3ccccc3)cc2)C(=O)N1C(=O)CCc1ccccc1` show?
Outgoing: 6.08

Incoming: Any idea what its pIC50 is? The molecule is `C[C@@H](OC(=O)CCCCc1ccccc1)[C@@H]1CN(C(=O)CCc2ccccc2)C1=O`
Outgoing: 7.04

Incoming: Fill in the blank: the reported pIC50 of `C=CCCC(=O)O[C@H](C)[C@H]1C(=O)N(C(=O)CCC=C)[C@@H]1OC(C)=O` is ____.
Outgoing: 5.72

Incoming: Bench note: what pIC50 did `C[C@@H](OC(=O)CCCCc1ccccc1)[C@@H]1CN(C(=O)CCCc2ccccc2)C1=O` show?
Outgoing: 7.35

Incoming: Can you share its pIC50? I mean this molecule: `C[C@@H](OC(=O)Cc1ccc(-c2ccccc2)cc1)[C@@H]1CN(C(=O)CCCCc2ccccc2)C1=O`
Outgoing: 6.63

Incoming: Requested field: pIC50. Item: `C[C@@H](OC(=O)Cc1ccc(-c2ccccc2)cc1)[C@@H]1CNC1=O`
Outgoing: 5.19

Incoming: State the recorded pIC50 for this entry: `C=CCCC(=O)N1C(=O)[C@H]([C@@H](C)O)[C@H]1OC(C)=O`
Outgoing: 3.27

Incoming: Param item = `C=CCCC(=O)N1C[C@@H]([C@@H](C)OC(=O)CCCc2ccccc2)C1=O` ; retrieve measured pIC50.
Outgoing: 8.30

* * *

- systemName: UniProtKB Q99685
- protocolDescription: Inhibition of human recombinant MGL using 2-oleoylglycerol at 100 uM by competitive hydrolysis assay
The compounds listed here are annotated with their inhibition.
Quick note: give the figure in %, leave out the unit.

Some compounds with recorded inhibition:
INSERT INTO assay_data (compoundsmiles, experimentalresult) VALUES
  ('C[C@@H](OC(=O)Cc1ccc(-c2ccccc2)cc1)[C@@H]1CN(C(=O)CCCc2ccccc2)C1=O', 0),
  ('C[C@@H](OC(=O)CCCc1ccccc1)[C@@H]1CN(C(=O)CCCc2ccccc2)C1=O', 100),
  ('C[C@@H](OC(=O)Cc1ccc(-c2ccccc2)cc1)[C@@H]1CN(C(=O)CCc2ccccc2)C1=O', 31);

Incoming: Any idea what its inhibition is? The compound is `CC(=O)O[C@@H]1[C@@H]([C@@H](C)OC(=O)CCCc2ccccc2)C(=O)N1C(=O)CCCc1ccccc1`
Outgoing: 100

Incoming: What does the record list as inhibition for `C[C@@H](OC(=O)CCCc1ccccc1)[C@@H]1CN(C(=O)CCc2ccccc2)C1=O` ?
Outgoing: 100

Incoming: Need inhibition of `CC(=O)O[C@@H]1[C@@H]([C@@H](C)O)C(=O)N1C(=O)CCc1ccccc1` , thanks.
Outgoing: 48

Incoming: Which inhibition value is on record for `C[C@@H](OC(=O)CCCCc1ccccc1)[C@@H]1CN(C(=O)CCc2ccccc2)C1=O` ?
Outgoing: 100

Incoming: Name the reported inhibition value associated with the compound `C[C@@H](OC(=O)Cc1ccc(-c2ccccc2)cc1)[C@@H]1CN(C(=O)CCCCc2ccccc2)C1=O`
Outgoing: 25

Incoming: Could you tell me which inhibition is on file for `C[C@@H](OC(=O)CCc1ccccc1)[C@@H]1CN(C(=O)CCCc2ccccc2)C1=O` ?
Outgoing: 54

Incoming: Which inhibition is listed for `C[C@@H](O)[C@@H]1CN(C(=O)CCc2ccccc2)C1=O` ?
Outgoing: 8

* * *

- systemName: Monoglyceride lipase (Homo sapiens) (UniProt Q99685)
- Sequence (whole entry): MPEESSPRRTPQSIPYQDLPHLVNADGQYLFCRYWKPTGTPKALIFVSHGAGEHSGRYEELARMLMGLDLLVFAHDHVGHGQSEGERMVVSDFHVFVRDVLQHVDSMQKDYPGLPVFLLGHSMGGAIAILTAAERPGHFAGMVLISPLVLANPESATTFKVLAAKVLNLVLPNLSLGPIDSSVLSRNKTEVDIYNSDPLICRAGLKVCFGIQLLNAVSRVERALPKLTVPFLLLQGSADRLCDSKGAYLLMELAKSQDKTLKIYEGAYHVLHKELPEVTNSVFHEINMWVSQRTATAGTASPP
- protocolDescription: Inhibition of human recombinant MGL using 2-oleoylglycerol at 100 uM by competitive hydrolysis assay
Here, each record is paired with measured inhibition data.
Respond with the bare value in %.

Example molecules with recorded inhibition:
INSERT INTO results (compoundsmiles, unitofmeasure, experimentalresult) VALUES
  ('C[C@@H](OC(=O)CCCc1ccccc1)[C@@H]1CN(C(=O)CCCCc2ccccc2)C1=O', '%', 39),
  ('C=CCCC(=O)N1C[C@@H]([C@@H](C)OC(=O)CCCc2ccccc2)C1=O', '%', 89),
  ('C=CCCCC(=O)N1C[C@@H]([C@@H](C)OC(=O)CCCc2ccccc2)C1=O', '%', 85),
  ('C=CCCC(=O)N1C[C@@H]([C@@H](C)O)C1=O', '%', 89);

Note: attention shifts to another entry.
Incoming: Item `C=CCCC(=O)O[C@H](C)[C@H]1C(=O)N(C(=O)CCC=C)[C@@H]1OC(C)=O` has what recorded inhibition?
Outgoing: 99

* * *

- systemName: UniProt:O00519
- protocolDescription: Inhibition of human recombinant FAAH using [3H]anandamide by competitive hydrolysis assay
pIC50: recorded values
When answering, recall that pIC50 equals minus log10 of the concentration in mol/L, and write that number alone.

INSERT INTO results (compoundsmiles, recordedmetric, experimentalresult) VALUES
  ('CC(=O)O[C@@H]1[C@@H]([C@@H](C)OC(=O)CCCc2ccccc2)C(=O)N1C(=O)CCc1ccccc1', 'pIC50', 6.02);

Incoming: So what's the measured pIC50 for this one? `C=CCCCC(=O)O[C@H](C)[C@@H]1CN(C(=O)CCC=C)C1=O`
Outgoing: 7.49

Incoming: Param item = `CC(=O)O[C@@H]1[C@@H]([C@@H](C)OC(=O)Cc2ccc(-c3ccccc3)cc2)C(=O)N1C(=O)CCCc1ccccc1` ; retrieve measured pIC50.
Outgoing: 6.15

* * *

A collection of compounds and their measured inhibition
- systemName: UniProt:Q99685
- protocolDescription: Inhibition of human recombinant MGL using 2-oleoylglycerol at 100 uM by competitive hydrolysis assay
Output should be the measured figure followed by the unit it is expressed in.

# count of solved cases: 5
INSERT INTO results (compoundsmiles, systemname, recordedmetric, experimentalresult) VALUES
  ('CC(=O)O[C@@H]1[C@@H]([C@@H](C)OC(=O)Cc2ccc(-c3ccccc3)cc2)C(=O)N1C(=O)CCc1ccccc1', 'UniProt:Q99685', 'inhibition', '66%'),
  ('C[C@@H](OC(=O)CCCCc1ccccc1)[C@@H]1CN(C(=O)CCCc2ccccc2)C1=O', 'UniProt:Q99685', 'inhibition', '59%'),
  ('C=CCCC(=O)N1C[C@@H]([C@@H](C)OC(=O)Cc2ccc(-c3ccccc3)cc2)C1=O', 'UniProt:Q99685', 'inhibition', '91%'),
  ('C=CCCC(=O)O[C@H](C)[C@@H]1CN(C(=O)CCC=C)C1=O', 'UniProt:Q99685', 'inhibition', '99%'),
  ('C=CCCCC(=O)O[C@H](C)[C@@H]1CN(C(=O)CCC=C)C1=O', 'UniProt:Q99685', 'inhibition', '8%');

Attention now shifts to the item below.
Incoming: Reported inhibition for `CC(=O)O[C@@H]1[C@@H]([C@@H](C)OC(=O)Cc2ccc(-c3ccccc3)cc2)C(=O)N1C(=O)CCCc1ccccc1` : what is it?
Outgoing: 100%
